Tested system: T1, Human IL-23 no linker (human, UniProt P29460 23-328)
T1 construct: also called recombinant IL-23 without linker
T1 sequence 1: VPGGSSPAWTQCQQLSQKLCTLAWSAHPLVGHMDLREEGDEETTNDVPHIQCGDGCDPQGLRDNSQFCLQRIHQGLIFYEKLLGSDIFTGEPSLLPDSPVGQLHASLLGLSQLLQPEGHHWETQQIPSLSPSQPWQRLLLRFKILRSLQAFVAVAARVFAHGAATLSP
T1 sequence 2: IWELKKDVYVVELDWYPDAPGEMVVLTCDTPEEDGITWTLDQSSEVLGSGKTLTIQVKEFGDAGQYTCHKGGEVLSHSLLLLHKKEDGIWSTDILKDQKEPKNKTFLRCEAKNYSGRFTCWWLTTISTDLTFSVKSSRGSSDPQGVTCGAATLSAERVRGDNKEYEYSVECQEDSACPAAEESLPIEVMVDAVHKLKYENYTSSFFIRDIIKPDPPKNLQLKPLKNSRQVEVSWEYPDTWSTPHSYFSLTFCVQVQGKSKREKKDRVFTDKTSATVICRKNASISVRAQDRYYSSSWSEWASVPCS
Assay text: SPR, ProteOn XPR36, global 1:1 fit
Measure name: kon

Binder | Result
Mouse antibody 6B8 (antibody, V domains shown, Mouse monoclonal antibody from hybridoma; also called Mouse 6B8; 6B8Vk) VH: QVQLQQSDAELVKPGTSVKTSCKISGNTFTDQTIHWMKQRPEQGLEWIGYIYPRDDSPKYNENFKGKATLTADKSSSTAYMQLNSLTSEDSAVYFCAIPDRSGYAWFIYWGQGTLVTVSS VL: DIVMTQSHKFLSTSVGDRVTITCKASRDVAIAVAWYQQKPGQSPKLLLFWASTRHTGVPDRFTGSGSRTDFTLTISNVQSEDLADYFCHQYSSYPFTFGSGTKLEIK | 557000 M⁻¹ s⁻¹
